Where do these numbers come from? They come from patent US20160326142A1.

molecular target: ITK (Homo sapiens, UniProt Q08881); construct: purchased Invitrogen PV3875; test: ITK enzyme assay (Caliper or LCMS peptide phosphorylation); assay type: biochemical; conditions: purified ITK (Invitrogen PV3875), 20 μM ATP, Ki by Morrison's quadratic equation
Sequence (Q08881 whole entry): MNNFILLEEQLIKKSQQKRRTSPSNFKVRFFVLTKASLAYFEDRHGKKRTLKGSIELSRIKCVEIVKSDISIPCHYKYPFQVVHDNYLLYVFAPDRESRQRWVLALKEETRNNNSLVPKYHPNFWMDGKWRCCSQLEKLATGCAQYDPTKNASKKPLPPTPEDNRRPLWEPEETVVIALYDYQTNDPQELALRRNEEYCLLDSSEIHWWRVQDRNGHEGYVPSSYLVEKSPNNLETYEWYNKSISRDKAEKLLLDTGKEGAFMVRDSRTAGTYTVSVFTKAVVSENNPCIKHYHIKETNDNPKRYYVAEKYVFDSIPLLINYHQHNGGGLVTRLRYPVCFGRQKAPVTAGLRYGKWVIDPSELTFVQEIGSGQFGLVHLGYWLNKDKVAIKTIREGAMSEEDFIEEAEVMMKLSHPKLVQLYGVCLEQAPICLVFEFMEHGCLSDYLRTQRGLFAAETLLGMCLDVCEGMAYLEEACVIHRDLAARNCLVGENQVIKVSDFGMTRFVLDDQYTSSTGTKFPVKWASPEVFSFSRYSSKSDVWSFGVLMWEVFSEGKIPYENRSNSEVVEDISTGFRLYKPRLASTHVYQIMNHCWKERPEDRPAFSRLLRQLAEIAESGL
observable: Ki (nM)
Write down the numeric answer in nM and omit the unit.

[ask] Quick one: Ki of CC1(C)CCc2c(C(=O)Nc3cnn(C(c4ccccc4)C4CS(=O)(=O)C4)c3)n[nH]c2C1 (single isomer, unassigned) [Example 89a] ?
[reply] 0.2

[ask] What about CC1(C)CCc2c(C(=O)Nc3cnn(C(CN4CCOCC4=O)c4ccccc4)c3)n[nH]c2C1 (single isomer, unassigned) [Example 77b] ?
[reply] 2

[ask] Now the compound CN(C)CCC(c1cccc(C(F)(F)F)c1)n1cc(NC(=O)c2n[nH]c3c2CCC(C)(C)C3)cn1 (single isomer, unassigned) [Example 30a]
[reply] 2

[ask] Input CCn1cc(C(C)n2cc(NC(=O)c3n[nH]c4c3CCC(C)(C)C4)cn2)cn1 (single isomer, unassigned) [Example 100b]
[reply] 7

[ask] Would you kindly repeat that for CC1(C)Cc2[nH]nc(C(=O)Nc3cnn(Cc4ccccc4)c3)c2CC1O (single isomer, unassigned) [Example 70b] ?
[reply] 7

New cases:
[ask] Could you share which Ki value was measured for CC1(C)CCc2c(C(=O)Nc3cnn(C(CO)c4ccccc4)c3)n[nH]c2C1 (single isomer, unassigned) [Example 53b] ?
[reply] 29

[ask] What do we get for CC1(C)CCc2c(C(=O)Nc3cnn([C@@H]4COC[C@H]4c4ccccc4)c3)n[nH]c2C1 (single isomer, unassigned) [Example 135b] ?
[reply] 14

[ask] Follow-up item: CC12Cc3[nH]nc(C(=O)Nc4cnn(C(c5cccnc5)C5CS(=O)(=O)C5)c4)c3CC1C2 (single isomer, unassigned) [Example 116b]
[reply] 2

----------
biological target: ITK (Homo sapiens, UniProt Q08881)
pKi: −log10 of the molar value.
Please enter yes (1) where pKi is greater than or equal to 8, and no (0) where it is lower.

Look over these answered cases.
[ask] For this molecule, is measured pKi 8 or higher? CC(c1cscn1)n1cc(NC(=O)c2n[nH]c3c2CCC(C)(C)C3)cn1 (single isomer, unassigned) [Example 84a]
[reply] no (0)

[ask] What do you have for Cn1ccnc1C(c1cccs1)n1cc(NC(=O)c2n[nH]c3c2CCC(C)(C)C3)cn1 (single isomer, unassigned) [Example 114a] ?
[reply] yes (1)

[ask] Then CC1CC(C(c2ccccc2)n2cc(NC(=O)c3n[nH]c4c3CCC(C)(C)C4)cn2)CCS1(=O)=O (single isomer, unassigned) [Example 139a] ?
[reply] yes (1)

[ask] Same question, CC1(C)CCc2c(C(=O)Nc3cnn(C(c4ccccc4)C4CCN(S(C)(=O)=O)CC4)c3)n[nH]c2C1 (single isomer, unassigned) [Example 67a] this time
[reply] yes (1)

[ask] What would you report for CN(C)CCC(c1ccccc1)n1cc(NC(=O)c2n[nH]c3c2CC2CC2C3)cn1 (single isomer, unassigned) [Example 28d] ?
[reply] no (0)

Further cases:
[ask] Tell me whether pKi is at least 8 here: CC(c1ccncc1)n1cc(NC(=O)c2n[nH]c3c2CCC(C)(C)C3)cn1 (single isomer, unassigned) [Example 107a]
[reply] no (0)

[ask] Check CC1(C)Cc2[nH]nc(C(=O)Nc3cnn(Cc4ccccc4)c3)c2CCO1 [Example 71a] too.
[reply] no (0)

[ask] Would you mind doing CC12Cc3[nH]nc(C(=O)Nc4cnn(C(c5cccnc5)C5CC[S+]([O-])CC5)c4)c3CC1C2 (single isomer, unassigned) [Example 146a] as well?
[reply] yes (1)

[ask] Let us now turn to CC1(C)CCc2c(C(=O)Nc3cnn([C@@H]4COC[C@H]4c4ccccc4)c3)n[nH]c2C1 (single isomer, unassigned) [Example 135a]
[reply] no (0)
